Target: T1, PSMA Fab
T1 construct: In the phage ELISA the PSMA Fab was biotinylated and captured on neutravidin coated plates; also called Anti-PSMA Fab; 006 PSMA Fab
Assay: clonal phage ELISA on biotinylated PSMA Fab captured on neutravidin plates, anti-M13 HRP detection;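 further: crude clonal phage supernatants tested, before phage were added, wells were pretreated with PSMA antigen in blocking buffer or with blocking buffer only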
Where no end group is shown, it is not given here.
Reported Phage binding ELISA signal, Anti-PSMA Fab values for a set of binders
outcome_measure: Phage binding ELISA signal, Anti-PSMA Fab

>  <binder>
VDRFCEPIWMCIGF [Phage-3306]

>  <readout_number>
1.87

$$$$
>  <binder>
EHYACKPEWMCAGF (cysteine pairing not given here; also: fused to pIII of bacteriophage) [Phage-3304]

>  <readout_number>
1.87

$$$$
>  <binder>
HSALCIPSWMCQGF [Phage-3305]

>  <readout_number>
1.87

$$$$
>  <binder>
MPPVCIPRWMCEGF [Phage-3301]

>  <readout_number>
1.88

$$$$
>  <binder>
HDAMCKPAWMCAGF [Phage-3299]

>  <readout_number>
1.88

$$$$
>  <binder>
VESMCKPAWMCIGF [Phage-3300]

>  <readout_number>
1.88

$$$$
